Listing: AC50 of selected compounds
system: INS-1E rat beta cells, no cytokines, CellTiter-Glo ATP, 48 h; assay: cytokine-free beta-cell viability effect – INS-1E rat cells, ATP luminescence, cherry pick, counter-screen for beta-cell apoptosis protection project, dose response (AID 463229)
Readout: AC50

[[record]]
compound = "CCN(c1ccccc1)S(=O)(=O)c1ccc(C(=O)NC2CCN(Cc3ccccc3)CC2)cc1"
result_value = "6.36 µM"

[[record]]
compound = "COc1ccc(NC(=O)/C(Cl)=C(/Cl)S(=O)Cc2ccccc2)cn1 (configuration not stated)"
result_value = "2.05 µM"

[[record]]
compound = "CC(C)OCCCNc1ncnc2c1[nH]c1ccc(F)cc12"
result_value = "2.46 µM"

[[record]]
compound = "O=C(Nc1nc2ccccc2[nH]1)c1ccccc1F"
result_value = "2.14 µM"

[[record]]
compound = "CCCCCCCCNC(C)C(O)c1ccc(SC(C)C)cc1 (configuration not stated)"
result_value = "10.5 µM"

[[record]]
compound = "CCN(CC)S(=O)(=O)c1cc(NC(=O)CNc2cccc(S(=O)(=O)N3CCCC3)c2)ccc1C"
result_value = "7.43 µM"

[[record]]
compound = "O=C1C=C(c2ccc(F)cc2OCc2ccccc2)C[C@@H](c2ccc(Cl)cc2)C1"
result_value = "5.46 µM"

[[record]]
compound = "O=C(NNC(=O)c1cccnc1SCc1cccc([N+](=O)[O-])c1)c1ccc(F)cc1"
result_value = "15.8 µM"

[[record]]
compound = "O=c1c2ccccc2nc(COc2ccccc2)n1/N=C/c1ccc(O)cc1O"
result_value = "15.9 µM"

[[record]]
compound = "COCCn1c(SCC(=O)/C=C2\\N(C)c3ccccc3C2(C)C)nnc1-c1ccncc1"
result_value = "13.1 µM"

[[record]]
compound = "Oc1cccc(/C=N/Nc2ccc(Cl)nn2)c1O"
result_value = "4.69 µM"

[[record]]
compound = "CCCC(=O)NC(c1cccs1)c1cc(Cl)c2cccnc2c1O (configuration not stated)"
result_value = "5.67 µM"

[[record]]
compound = "CCN1C/C(=C/c2ccc(OC)c(O)c2)C(=O)/C(=C/c2ccc(OC)c(O)c2)C1"
result_value = "4.92 µM"

[[record]]
compound = "FC(F)(F)c1nnc(-c2ccccc2)nc1Sc1ccc(Cl)cc1"
result_value = "12.6 µM"

[[record]]
compound = "CC(=O)Nc1ccc(Nc2c3ccccc3nc3ccccc23)cc1"
result_value = "7.08 µM"

[[record]]
compound = "Cc1ccc(C)c(N=Nc2ccc(O)c3ncccc23)c1"
result_value = "3.98 µM"

[[record]]
compound = "COc1ccc(N/N=C(/N=Nc2nc(C)cc(=O)[nH]2)c2ccccc2)cc1"
result_value = "1.78 µM"

[[record]]
compound = "COc1ccc(Cn2c(-c3ccc(C)cc3)c[n+]3ccccc23)cc1"
result_value = "5.23 µM"

[[record]]
compound = "Cn1c(/C=C/c2ccc([N+](=O)[O-])o2)nc2ccccc2c1=O"
result_value = "3.56 µM"

[[record]]
compound = "Cc1nnsc1-c1onc(C)c1C(=O)Nc1cc(Cl)cc(Cl)c1"
result_value = "16.5 µM"

[[record]]
compound = "Cc1nn(C)c(C)c1CN(C)S(=O)(=O)c1ccc2ccccc2c1"
result_value = "3.02 µM"

[[record]]
compound = "Cc1ccc(NC2=C/C(=N\\S(=O)(=O)c3cccs3)c3ccccc3C2=O)c(C)c1"
result_value = "1.88 µM"


Source listed as PubChem BioAssay AID463229.
